# Tested on: MS2 coat protein
# Test Protocol: apparent KD of MS2 coat protein; designed switch direction (-1 OFF switch, 1 ON switch): 1; higher = weaker reporter binding
# Assay Setup: input ligand: none
Decision: apparent KD of MS2 coat protein compared against 100 nM; not below it gives yes, below it gives no.

{"columns": ["Residue Sequence", "Target", "Group Label"],
 "data": [
  ["GCCGCGUUUCGCGCCUACAUGAGGAUCACCCAUGUUUGUAGGCAGGAUAUCGCCCGCUUUGCGGGCGAGAAGGGCUGUUGUGGC [salish99_SSNG3_R04_020] (Eterna round: R96, puzzle: Same State NG 3)", "MS2 coat protein", "no"],
  ["GCGGAGAGGUAAGGAUAUCCAUGGCAUAGACAUGAGGAUCACCCAUGUAGGAGACGAAUUAGAAGGGAGAAGGUACCGGGACGC [AK SSNG2-V2-19] (Eterna round: R96, puzzle: Same State NG 2)", "MS2 coat protein", "yes"],
  ["ACUAGAAACGGGCAAUAACACAUGAGGAUCACCCAUGUGACACAGGAUAUAACCAGAUCAGAAAGUUAGAAGGGUGAGCCCGCA [Edraed] (Eterna round: R96, puzzle: Same State NG 3)", "MS2 coat protein", "no"],
  ["AGAUGUUAAUUAGGAUAUGGACACAUGAGGAUCACCCAUGUAACGAAGAUACGAUGUGGUCAAGUCUAGAAGGGAUCGCUAACA [SameState NG2 #74] (Eterna round: R96, puzzle: Same State NG 2)", "MS2 coat protein", "no"],
  ["AUUUUUAAUGCAGGAUAUGAUUAACAUGAGGAUCACCCAUGUGGUGUUGUGAGUAAGGAGAGUGAUCAGAAGGGCAUUUUUUAU [JMF's solution 86] (Eterna round: R96, puzzle: Same State NG 2)", "MS2 coat protein", "yes"],
  ["GUAGCAUACCGAGGAUAUUCAUAUUAUAACAUGAGGAUCACCCAUGUAGGCCGAUUACGGCCUUGGGAGAAGGCGGAAUGCUAC [Xeonanis - 20 Mod19] (Eterna round: R96, puzzle: Same State NG 2)", "MS2 coat protein", "yes"],
  ["AUUCGUUUGAUAGGAUAUCACUUUACAUGAGGAUCACCCAUGUUCACCACGCUGGUCCCUUAUACUGAGAAGGAUCUUGAUGAC [JR_SSNG2_Sub008] (Eterna round: R96, puzzle: Same State NG 2)", "MS2 coat protein", "no"],
  ["GGCGAACAGGCUAACAUGAGGAUCACCCAUGUGGACUUCGUGUAGGAUAUCGGGAAGGAGGAAACCGAGAAGGGCGAAGAAGCC [AK SSNG3-V2-49.1] (Eterna round: R96, puzzle: Same State NG 3)", "MS2 coat protein", "no"]
]}
